- MEASURED ON: MAP2K2 (IPI00003783) (Homo sapiens, UniProt P36507)
- Construct: endogenous in cells
- ASSAY COMMENT: binding to VI16742 beads (HeLa lysate, SILAC MS)
- CONDITIONS USED: immobilized VI16742
MEASUREMENT TYPE: pKi
Keep it numeric: pKi is minus log10 of the concentration in mol/L.

Record CC(C)n1c(=O)ccc2cnc(Nc3ccc(OCCN)cc3)nc21 [V16742] , field pKi: 3.75

====

- MEASURED ON: MAP3K6 (Homo sapiens)
- Construct: endogenous in cells; host or cells: HeLa S3
- Sequence (O95382 1-1288): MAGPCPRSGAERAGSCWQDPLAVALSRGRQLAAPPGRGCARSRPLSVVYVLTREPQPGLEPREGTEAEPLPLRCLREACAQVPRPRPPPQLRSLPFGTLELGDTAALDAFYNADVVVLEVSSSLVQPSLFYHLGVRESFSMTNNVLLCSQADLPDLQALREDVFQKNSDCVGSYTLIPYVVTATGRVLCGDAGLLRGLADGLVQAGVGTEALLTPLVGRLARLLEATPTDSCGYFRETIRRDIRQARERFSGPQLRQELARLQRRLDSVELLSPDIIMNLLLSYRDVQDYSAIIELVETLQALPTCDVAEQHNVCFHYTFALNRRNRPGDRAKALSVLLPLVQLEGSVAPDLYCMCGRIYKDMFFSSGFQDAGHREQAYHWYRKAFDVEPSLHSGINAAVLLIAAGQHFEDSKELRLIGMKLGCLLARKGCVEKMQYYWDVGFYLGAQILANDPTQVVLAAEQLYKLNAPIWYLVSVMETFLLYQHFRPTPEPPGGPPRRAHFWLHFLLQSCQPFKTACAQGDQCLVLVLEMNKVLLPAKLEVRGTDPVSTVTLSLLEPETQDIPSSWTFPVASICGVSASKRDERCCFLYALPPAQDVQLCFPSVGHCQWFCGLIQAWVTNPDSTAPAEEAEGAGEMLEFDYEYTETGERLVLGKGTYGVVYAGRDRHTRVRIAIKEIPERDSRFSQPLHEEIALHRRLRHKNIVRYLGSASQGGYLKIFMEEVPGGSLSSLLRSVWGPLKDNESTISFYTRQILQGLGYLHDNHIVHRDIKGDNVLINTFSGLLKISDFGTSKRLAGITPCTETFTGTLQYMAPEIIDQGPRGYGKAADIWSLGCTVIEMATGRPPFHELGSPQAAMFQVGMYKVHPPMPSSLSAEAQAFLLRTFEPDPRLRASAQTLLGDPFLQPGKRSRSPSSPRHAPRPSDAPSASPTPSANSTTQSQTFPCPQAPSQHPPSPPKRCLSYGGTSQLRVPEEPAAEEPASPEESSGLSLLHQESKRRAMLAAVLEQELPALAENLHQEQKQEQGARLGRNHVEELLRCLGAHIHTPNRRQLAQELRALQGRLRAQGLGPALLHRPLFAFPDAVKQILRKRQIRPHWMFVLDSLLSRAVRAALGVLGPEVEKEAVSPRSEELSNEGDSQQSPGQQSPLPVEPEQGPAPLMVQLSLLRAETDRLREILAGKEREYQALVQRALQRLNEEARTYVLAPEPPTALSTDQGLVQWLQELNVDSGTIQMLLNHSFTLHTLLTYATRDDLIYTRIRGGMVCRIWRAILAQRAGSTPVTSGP
- ASSAY COMMENT: binding to immobilized V16742 (IVA1/IVA2, HeLa lysate, MS)
- CONDITIONS USED: Experiment 1, read-out: Kd
MEASUREMENT TYPE: Kd
The reply should read as a number followed by its unit.

Reported Kd for CC(C)n1c(=O)ccc2cnc(Nc3ccc(OCCN)cc3)nc21 was 57.7 µM

====

- MEASURED ON: CK1e (Homo sapiens)
- Sequence (P49674 whole entry): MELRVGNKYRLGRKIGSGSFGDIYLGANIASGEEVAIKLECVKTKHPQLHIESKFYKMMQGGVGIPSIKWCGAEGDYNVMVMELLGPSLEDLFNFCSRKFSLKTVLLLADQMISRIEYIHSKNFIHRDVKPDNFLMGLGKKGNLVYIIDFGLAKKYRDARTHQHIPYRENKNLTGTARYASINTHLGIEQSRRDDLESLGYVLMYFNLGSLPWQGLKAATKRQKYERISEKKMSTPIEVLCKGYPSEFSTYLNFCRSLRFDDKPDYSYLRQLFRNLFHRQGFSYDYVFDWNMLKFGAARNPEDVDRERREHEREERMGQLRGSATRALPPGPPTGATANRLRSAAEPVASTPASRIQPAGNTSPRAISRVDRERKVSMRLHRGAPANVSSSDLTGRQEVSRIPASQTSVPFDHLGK
- ASSAY COMMENT: binding to immobilized V16742 (IVA1/IVA2, HeLa lysate, MS)
MEASUREMENT TYPE: Kd (µM)
Expressed in µM, but write only the number.

Sample CC(C)n1c(=O)ccc2cnc(Nc3ccc(OCCN)cc3)nc21 ; Kd observed: 13

====

- MEASURED ON: MRCKb (CDC42BPB, IPI00477763) (Homo sapiens)
- Construct: endogenous in cells
- Sequence (Q9Y5S2 whole entry): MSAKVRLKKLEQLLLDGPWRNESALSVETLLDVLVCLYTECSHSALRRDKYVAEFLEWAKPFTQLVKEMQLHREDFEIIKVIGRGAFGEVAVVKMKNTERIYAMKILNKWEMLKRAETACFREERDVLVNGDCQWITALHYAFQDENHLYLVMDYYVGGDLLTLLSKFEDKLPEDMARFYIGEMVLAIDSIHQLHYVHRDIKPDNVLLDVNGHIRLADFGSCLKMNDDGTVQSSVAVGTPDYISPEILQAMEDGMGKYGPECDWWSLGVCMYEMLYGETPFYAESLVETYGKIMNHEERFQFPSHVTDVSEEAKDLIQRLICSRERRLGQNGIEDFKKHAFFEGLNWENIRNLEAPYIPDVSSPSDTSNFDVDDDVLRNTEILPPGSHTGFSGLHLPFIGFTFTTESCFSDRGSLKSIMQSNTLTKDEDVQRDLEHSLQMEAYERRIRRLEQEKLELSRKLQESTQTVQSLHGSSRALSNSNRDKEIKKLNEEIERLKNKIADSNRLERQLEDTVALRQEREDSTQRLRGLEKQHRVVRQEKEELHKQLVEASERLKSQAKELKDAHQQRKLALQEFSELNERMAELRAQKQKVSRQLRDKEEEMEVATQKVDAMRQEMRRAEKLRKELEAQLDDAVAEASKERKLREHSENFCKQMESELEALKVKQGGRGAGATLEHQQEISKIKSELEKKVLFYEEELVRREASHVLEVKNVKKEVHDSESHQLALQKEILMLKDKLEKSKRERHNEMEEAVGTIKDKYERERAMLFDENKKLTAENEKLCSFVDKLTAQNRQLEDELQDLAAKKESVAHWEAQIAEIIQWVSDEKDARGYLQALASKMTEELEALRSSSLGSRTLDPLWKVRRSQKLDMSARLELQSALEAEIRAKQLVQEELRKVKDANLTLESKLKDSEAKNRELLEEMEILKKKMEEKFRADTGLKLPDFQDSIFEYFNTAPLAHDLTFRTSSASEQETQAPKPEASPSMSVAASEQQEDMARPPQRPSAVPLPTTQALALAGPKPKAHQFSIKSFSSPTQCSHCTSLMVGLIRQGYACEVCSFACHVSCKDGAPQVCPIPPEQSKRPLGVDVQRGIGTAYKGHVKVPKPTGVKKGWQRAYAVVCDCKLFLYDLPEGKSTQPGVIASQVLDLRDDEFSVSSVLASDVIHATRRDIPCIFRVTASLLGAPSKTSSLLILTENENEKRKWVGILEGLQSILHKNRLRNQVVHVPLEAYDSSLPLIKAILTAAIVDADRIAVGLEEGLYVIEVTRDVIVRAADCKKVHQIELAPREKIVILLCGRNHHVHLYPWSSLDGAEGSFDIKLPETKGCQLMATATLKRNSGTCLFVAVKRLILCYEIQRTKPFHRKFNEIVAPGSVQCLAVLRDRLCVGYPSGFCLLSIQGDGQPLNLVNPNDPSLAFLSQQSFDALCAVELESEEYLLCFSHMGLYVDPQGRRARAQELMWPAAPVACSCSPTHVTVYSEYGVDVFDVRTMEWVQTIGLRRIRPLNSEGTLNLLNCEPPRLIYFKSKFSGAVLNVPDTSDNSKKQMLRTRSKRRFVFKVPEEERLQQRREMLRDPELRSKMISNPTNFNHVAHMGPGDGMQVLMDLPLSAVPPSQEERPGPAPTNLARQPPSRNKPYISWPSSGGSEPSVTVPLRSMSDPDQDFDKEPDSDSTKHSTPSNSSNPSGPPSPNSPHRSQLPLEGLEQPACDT
- ASSAY COMMENT: binding to VI16742 beads (HeLa lysate, SILAC MS)
- CONDITIONS USED: immobilized VI16742
MEASUREMENT TYPE: pKi
Scale: negative log10 of molar concentration, which is what pKi denotes.

Notebook: CC(C)n1c(=O)ccc2cnc(Nc3ccc(OCCN)cc3)nc21 , pKi read as 3.52

====

- MEASURED ON: ADK (IPI00290279) (Homo sapiens)
- Construct: endogenous in cells; host or cells: HeLa S3 cell lysate
- Sequence (P55263 whole entry): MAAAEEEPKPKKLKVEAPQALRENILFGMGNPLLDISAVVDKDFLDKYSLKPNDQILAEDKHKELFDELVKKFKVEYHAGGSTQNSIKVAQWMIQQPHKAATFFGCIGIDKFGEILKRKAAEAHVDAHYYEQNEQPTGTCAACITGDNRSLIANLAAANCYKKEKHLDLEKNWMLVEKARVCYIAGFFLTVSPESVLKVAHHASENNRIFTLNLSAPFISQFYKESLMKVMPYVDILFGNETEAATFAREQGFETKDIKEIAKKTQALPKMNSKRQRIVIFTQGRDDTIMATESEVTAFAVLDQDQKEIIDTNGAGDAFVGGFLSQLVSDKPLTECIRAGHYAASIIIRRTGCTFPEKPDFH
- ASSAY COMMENT: binding to VI16742 beads (HeLa lysate, SILAC MS)
- CONDITIONS USED: immobilized VI16742
MEASUREMENT TYPE: pKi
Value format note: pKi is -log10 of concentration (mol/L); just state the number.

Noted for CC(C)n1c(=O)ccc2cnc(Nc3ccc(OCCN)cc3)nc21 [V16742] : its pKi reads 4.03

====

- MEASURED ON: TAO1 (TAOK1, IPI00002232) (Homo sapiens, UniProt Q7L7X3)
- Construct: endogenous in cells
- Sequence (Q7L7X3 whole entry): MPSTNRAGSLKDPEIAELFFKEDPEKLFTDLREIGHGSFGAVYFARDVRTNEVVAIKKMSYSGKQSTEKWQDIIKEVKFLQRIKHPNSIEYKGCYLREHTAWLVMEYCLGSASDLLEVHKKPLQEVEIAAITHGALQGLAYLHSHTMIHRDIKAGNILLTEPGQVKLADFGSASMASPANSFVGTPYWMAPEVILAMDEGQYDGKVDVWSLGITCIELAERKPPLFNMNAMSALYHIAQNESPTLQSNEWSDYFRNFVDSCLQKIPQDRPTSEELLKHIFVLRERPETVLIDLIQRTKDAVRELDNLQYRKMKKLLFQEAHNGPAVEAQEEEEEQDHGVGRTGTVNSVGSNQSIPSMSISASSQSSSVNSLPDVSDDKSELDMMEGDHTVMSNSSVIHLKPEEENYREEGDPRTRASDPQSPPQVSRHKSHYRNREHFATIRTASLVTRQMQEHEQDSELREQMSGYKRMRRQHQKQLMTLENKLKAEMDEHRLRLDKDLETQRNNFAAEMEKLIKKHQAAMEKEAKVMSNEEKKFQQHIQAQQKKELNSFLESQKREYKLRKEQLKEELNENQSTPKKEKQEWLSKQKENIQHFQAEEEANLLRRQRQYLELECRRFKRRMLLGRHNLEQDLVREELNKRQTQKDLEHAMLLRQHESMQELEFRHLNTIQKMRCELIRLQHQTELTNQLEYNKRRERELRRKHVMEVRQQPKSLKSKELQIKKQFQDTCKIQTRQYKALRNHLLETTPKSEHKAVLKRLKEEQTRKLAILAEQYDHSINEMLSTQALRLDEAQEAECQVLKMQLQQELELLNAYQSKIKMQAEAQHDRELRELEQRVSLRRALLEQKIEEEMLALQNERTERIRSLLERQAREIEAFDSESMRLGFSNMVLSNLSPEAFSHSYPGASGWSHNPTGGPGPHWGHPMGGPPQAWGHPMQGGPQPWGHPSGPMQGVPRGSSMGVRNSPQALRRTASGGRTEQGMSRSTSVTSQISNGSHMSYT
- ASSAY COMMENT: binding to VI16742 beads (HeLa lysate, SILAC MS)
- CONDITIONS USED: immobilized VI16742
MEASUREMENT TYPE: Ki (µM)
# output: bare number, implied unit µM

What the record says about CC(C)n1c(=O)ccc2cnc(Nc3ccc(OCCN)cc3)nc21 : Ki is 162

====

- MEASURED ON: MAP2K4 (IPI00789335) (Homo sapiens)
- Construct: endogenous in cells
- Sequence (P45985 1-399): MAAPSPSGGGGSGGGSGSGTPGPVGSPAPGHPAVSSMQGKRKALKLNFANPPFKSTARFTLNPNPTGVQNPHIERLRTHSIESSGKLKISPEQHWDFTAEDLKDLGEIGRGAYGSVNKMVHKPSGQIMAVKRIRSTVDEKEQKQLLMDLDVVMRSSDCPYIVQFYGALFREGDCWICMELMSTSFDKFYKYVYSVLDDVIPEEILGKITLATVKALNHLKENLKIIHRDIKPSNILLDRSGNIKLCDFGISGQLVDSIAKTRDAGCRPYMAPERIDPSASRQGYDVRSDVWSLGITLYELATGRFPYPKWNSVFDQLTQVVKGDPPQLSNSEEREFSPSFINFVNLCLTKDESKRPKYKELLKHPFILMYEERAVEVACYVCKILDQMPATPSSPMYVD
- ASSAY COMMENT: binding to VI16742 beads (HeLa lysate, SILAC MS)
- CONDITIONS USED: immobilized VI16742
MEASUREMENT TYPE: pKi
The quantity pKi is defined as the negative base-10 logarithm of the molar concentration.

Form field pKi, entry CC(C)n1c(=O)ccc2cnc(Nc3ccc(OCCN)cc3)nc21 [V16742] : 3.89

====

- MEASURED ON: GSK3A (Homo sapiens, UniProt P49840)
- Sequence (P49840 whole entry): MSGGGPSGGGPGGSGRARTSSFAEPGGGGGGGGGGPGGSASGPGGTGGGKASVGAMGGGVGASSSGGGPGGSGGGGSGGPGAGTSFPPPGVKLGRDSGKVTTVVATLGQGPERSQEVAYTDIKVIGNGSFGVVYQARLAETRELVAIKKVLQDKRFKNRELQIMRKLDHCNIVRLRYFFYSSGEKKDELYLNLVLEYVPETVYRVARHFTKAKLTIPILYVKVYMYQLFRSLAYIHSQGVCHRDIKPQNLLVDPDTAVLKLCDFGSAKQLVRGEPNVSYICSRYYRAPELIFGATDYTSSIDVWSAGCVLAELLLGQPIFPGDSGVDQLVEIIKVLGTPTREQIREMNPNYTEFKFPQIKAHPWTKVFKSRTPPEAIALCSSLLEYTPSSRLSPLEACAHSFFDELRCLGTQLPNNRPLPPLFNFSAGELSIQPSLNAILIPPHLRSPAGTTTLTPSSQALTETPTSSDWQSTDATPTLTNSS
- ASSAY COMMENT: binding to immobilized V16742 (IVA1/IVA2, HeLa lysate, MS)
- CONDITIONS USED: EXPERIMENT 1, read-out: Kd
MEASUREMENT TYPE: pKd
Note on units: pKd is unitless, being -log10 of a concentration expressed in mol/L.

GSK3A (Homo sapiens, UniProt P49840) assay, compound CC(C)n1c(=O)ccc2cnc(Nc3ccc(OCCN)cc3)nc21 [compound 16742] , recorded pKd = 4.84

====

- MEASURED ON: RIPK2 (Homo sapiens)
- Sequence (O43353 whole entry): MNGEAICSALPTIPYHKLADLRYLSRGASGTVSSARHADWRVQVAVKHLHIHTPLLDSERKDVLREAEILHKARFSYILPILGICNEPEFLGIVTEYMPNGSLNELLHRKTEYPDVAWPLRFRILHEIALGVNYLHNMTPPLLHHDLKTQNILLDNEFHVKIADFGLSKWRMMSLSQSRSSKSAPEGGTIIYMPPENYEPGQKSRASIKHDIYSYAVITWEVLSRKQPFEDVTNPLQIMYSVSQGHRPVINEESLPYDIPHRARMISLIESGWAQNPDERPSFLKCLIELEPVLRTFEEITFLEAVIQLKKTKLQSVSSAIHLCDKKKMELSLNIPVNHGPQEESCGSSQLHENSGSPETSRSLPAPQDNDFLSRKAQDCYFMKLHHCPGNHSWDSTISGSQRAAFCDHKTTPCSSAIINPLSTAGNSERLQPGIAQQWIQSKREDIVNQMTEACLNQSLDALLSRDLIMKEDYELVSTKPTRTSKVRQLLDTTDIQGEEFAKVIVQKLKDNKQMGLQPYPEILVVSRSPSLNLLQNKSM
- ASSAY COMMENT: binding to immobilized V16742 (IVA1/IVA2, HeLa lysate, MS)
- CONDITIONS USED: EXPERIMENT 1, read-out: Kd
MEASUREMENT TYPE: pKd
Hey, just a heads up that pKd is the negative log base 10 of the concentration in molar.

Documented pKd of CC(C)n1c(=O)ccc2cnc(Nc3ccc(OCCN)cc3)nc21 : 4.94

====

- MEASURED ON: BRD4 (Homo sapiens, UniProt O60885)
- ASSAY COMMENT: binding to immobilized V16742 (IVA1/IVA2, HeLa lysate, MS)
- CONDITIONS USED: immobilized V16742, read-out: Kd
MEASUREMENT TYPE: pKd
FYI, pKd means -log10 of a concentration in mol per litre.

Noted for CC(C)n1c(=O)ccc2cnc(Nc3ccc(OCCN)cc3)nc21 : its pKd reads 4.49

====

- MEASURED ON: PHKg2 (Homo sapiens, UniProt P15735)
- Construct: endogenous in cells
- Sequence (P15735 whole entry): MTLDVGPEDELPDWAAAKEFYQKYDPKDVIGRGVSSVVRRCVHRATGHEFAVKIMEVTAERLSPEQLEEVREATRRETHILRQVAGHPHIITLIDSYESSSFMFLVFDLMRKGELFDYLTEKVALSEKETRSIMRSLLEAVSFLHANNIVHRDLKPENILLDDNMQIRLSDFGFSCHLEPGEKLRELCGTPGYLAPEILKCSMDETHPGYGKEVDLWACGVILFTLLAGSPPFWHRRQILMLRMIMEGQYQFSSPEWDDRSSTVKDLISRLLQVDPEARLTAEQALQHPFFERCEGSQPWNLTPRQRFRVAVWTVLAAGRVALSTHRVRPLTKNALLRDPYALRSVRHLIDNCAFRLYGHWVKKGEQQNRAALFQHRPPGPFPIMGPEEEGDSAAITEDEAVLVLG
- ASSAY COMMENT: binding to immobilized V16742 (IVA1/IVA2, HeLa lysate, MS)
- CONDITIONS USED: Experiment 2
MEASUREMENT TYPE: Kd (µM)
Kindly provide the numeric value in µM only, without the unit symbol.

Measured Kd, CC(C)n1c(=O)ccc2cnc(Nc3ccc(OCCN)cc3)nc21 : 146
